# Assayed System: T1, TruB (tmTruB), tRNA pseudouridine-55 synthase (Thermotoga maritima, UniProt Q9WZW0 1-309)
# T1 sequence: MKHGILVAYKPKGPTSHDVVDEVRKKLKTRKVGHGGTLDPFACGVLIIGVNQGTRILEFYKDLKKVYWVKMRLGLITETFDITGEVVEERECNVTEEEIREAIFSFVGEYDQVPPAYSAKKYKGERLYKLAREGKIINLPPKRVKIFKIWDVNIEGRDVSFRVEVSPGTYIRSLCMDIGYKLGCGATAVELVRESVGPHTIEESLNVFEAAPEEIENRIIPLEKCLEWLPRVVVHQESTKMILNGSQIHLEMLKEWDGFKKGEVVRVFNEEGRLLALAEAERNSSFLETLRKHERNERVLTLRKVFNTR
# Assay Procedure: fluorescence titration (spectral shifts, lifetime/anisotropy); average over three titration curves; 200 nM tRNA; 1x MST buffer (composition not in material); tRNA folded 4 min 75 C in water then cooled in buffer; MST at 25 C, 50 nM tRNA; fluorescence at 200 nM tRNA; SDS-PAGE complexes formed at 25 or 70 C
# Assay Setup: protein: recombinant; label: Cy5 at C49 (internal); tRNA fold
Recorded Metric: pKd
For clarity, pKd is expressed as the negative log10 of concentration in mol/L.

Binder: C49-5FU55-tRNA (Cy5 at C49) (structured_RNA, 5-fluorouridine at position 55; 5-aminohexyl-3-acrylimido-deoxycytidine at C49) RNA: GCGGAUUUAGCUCAGUUGGGAGAGCGCCAGACUGAAGAUCUGGAGGUCCUGUGUUCGAUCCACAGAAUUCGCACCA
pKd: 6.91

Lab note: next binder to report on.
stdin: Look up pKd of C49-U55-tRNA (Cy5 at C49) (structured_RNA, 5-aminohexyl-3-acrylimido-deoxycytidine at C49) RNA: GCGGAUUUAGCUCAGUUGGGAGAGCGCCAGACUGAAGAUCUGGAGGUCCUGUGUUCGAUCCACAGAAUUCGCACCA and report it.
stdout: 6.65
